Value source: paper PMC12188521

system under test: acetylcholinesterase (AChE) (Homo sapiens)
Sequence (P22303 32-614, species assumed): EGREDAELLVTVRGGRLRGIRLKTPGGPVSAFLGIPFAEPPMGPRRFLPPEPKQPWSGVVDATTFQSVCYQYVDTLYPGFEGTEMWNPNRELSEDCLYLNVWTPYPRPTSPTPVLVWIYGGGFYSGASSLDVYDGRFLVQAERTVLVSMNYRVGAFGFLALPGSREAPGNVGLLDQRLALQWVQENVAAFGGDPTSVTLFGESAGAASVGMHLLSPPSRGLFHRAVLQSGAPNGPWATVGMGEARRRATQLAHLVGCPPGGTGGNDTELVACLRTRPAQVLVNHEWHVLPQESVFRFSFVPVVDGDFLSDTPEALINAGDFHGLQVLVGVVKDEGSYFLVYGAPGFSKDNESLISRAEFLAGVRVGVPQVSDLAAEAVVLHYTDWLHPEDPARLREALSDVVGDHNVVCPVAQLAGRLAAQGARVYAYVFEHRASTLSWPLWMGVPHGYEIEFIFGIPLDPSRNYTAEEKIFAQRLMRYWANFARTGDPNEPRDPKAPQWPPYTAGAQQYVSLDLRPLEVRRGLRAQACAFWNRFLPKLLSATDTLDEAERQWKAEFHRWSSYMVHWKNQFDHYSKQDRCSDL
assay procedure: biochemical
quantity measured: pIC50
Please note pIC50 is a logarithmic value: minus log10 of concentration in mol/L. Answer with that number alone.

COc1ccc(C=NN=C(C)c2ccc(OCc3ccc(Br)cc3)cc2)cc1 : 4.32
CCN(CC)c1ccc(C=NN=C(C)c2ccc(OCc3ccc(Br)cc3)cc2)cc1 : 4.35
CC(=NN=Cc1ccc(C)cc1)c1ccc(OCc2ccc(Br)cc2)cc1 : 4.21
CC(=NN=Cc1cccc2ccccc12)c1ccc(OCc2ccc(Br)cc2)cc1 : 3.89

Data point: COc1cccc(C=NN=C(C)c2ccc(OCc3ccc(Br)cc3)cc2)c1O ; pIC50 = 4.73

Data point: CC(=NN=Cc1ccc(C=O)cc1)c1ccc(OCc2ccc(Br)cc2)cc1 ; pIC50 = 3.85

Data point: CC(=NN=Cc1ccc(C)o1)c1ccc(OCc2ccc(Br)cc2)cc1 ; pIC50 = 4.01

Data point: CC(=NN=Cc1ccc(Cl)cc1)c1ccc(OCc2ccc(Br)cc2)cc1 ; pIC50 = 3.86

Data point: CC(=NN=Cc1ccc(Br)cc1F)c1ccc(OCc2ccc(Br)cc2)cc1 ; pIC50 = 3.82
